src = paper PMC4594923

Measured IC50 accompanies every entry in the list below.
MEASURED TARGET: COX–2 (Homo sapiens)
Sequence (P35354 18-604): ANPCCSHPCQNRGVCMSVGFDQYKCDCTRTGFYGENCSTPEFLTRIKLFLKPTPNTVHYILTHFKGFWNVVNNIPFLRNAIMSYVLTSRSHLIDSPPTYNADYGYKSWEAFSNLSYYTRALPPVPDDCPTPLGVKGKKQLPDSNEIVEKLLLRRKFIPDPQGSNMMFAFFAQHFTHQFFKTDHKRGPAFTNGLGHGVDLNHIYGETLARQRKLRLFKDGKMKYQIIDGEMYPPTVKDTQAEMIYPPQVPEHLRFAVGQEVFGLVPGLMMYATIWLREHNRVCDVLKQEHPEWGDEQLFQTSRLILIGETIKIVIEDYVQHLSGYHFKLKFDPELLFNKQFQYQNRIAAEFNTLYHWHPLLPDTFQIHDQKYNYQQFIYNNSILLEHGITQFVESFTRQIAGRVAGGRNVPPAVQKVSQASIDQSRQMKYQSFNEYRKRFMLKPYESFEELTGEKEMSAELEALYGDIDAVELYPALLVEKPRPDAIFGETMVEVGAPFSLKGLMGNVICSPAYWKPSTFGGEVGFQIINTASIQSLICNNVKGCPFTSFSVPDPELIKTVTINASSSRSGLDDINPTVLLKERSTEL
METHOD SUMMARY: PGE2 formation in LPS stimulated primary human monocytes (24 h, LC-MS)
Assay type: cell-based
CONDITION INFO: LPS stimulated, calculated based on PGE2, n = 3, 24 h; read-out: IC50 (95% CI), primary monocytes

COMPOUND	IC50
COc1ccc(-c2cc(=O)c3c(OC)c(OC)c(OC)c(OC)c3o2)cc1OC [Nobiletin, nobiletin]	24 µM
O=C1C[C@@H](c2ccc(O)cc2)Oc2cc(O)cc(O)c21 [Naringenin, naringenin]	29 µM

====

Tested on: arachidonic acid (AA) cascade
METHOD SUMMARY: kidney tissue oxylipin/PG levels in LPS induced sepsis in mice
CONDITION INFO: kidney tissue 24 h after LPS treatment, LPS +, mean
Marks after values point to notes of the source that are not given here.
PROPERTY: PGF1α

COMPOUND	VALUE MEASURED
Oc1ccc(/C=C/c2cc(O)cc3c2[C@@H](c2cc(O)cc(O)c2)[C@H](c2ccc(O)cc2)O3)cc1	7.7^‡ nM
O=c1c(-c2ccc(O)cc2)coc2cc(O)cc(O)c12	3.7 nM
Oc1ccc(/C=C/c2cc(O)cc(O)c2)cc1	6.2^† nM
Cc1ccc(-c2cc(C(F)(F)F)nn2-c2ccc(S(N)(=O)=O)cc2)cc1 [celecoxib, reference compound]	1.4^† nM
O=c1cc(-c2ccc(O)cc2)oc2cc(O)cc(O)c12	2.8 nM

====

Tested on: arachidonic acid (AA) cascade
METHOD SUMMARY: kidney tissue oxylipin/PG levels in LPS induced sepsis in mice
CONDITION INFO: kidney tissue 24 h after LPS treatment, LPS +, mean
# note: exactly 8 nM is not below, so it is NO; use YES for 13-oxo-ODE strictly under it

COMPOUND	ANSWER LABEL
O=c1c(-c2ccc(O)cc2)coc2cc(O)cc(O)c12	NO
Oc1ccc(/C=C/c2cc(O)cc(O)c2)cc1	YES
Oc1ccc(/C=C/c2cc(O)cc3c2[C@@H](c2cc(O)cc(O)c2)[C@H](c2ccc(O)cc2)O3)cc1	NO
Cc1ccc(-c2cc(C(F)(F)F)nn2-c2ccc(S(N)(=O)=O)cc2)cc1 [celecoxib, reference compound]	NO
O=c1cc(-c2ccc(O)cc2)oc2cc(O)cc(O)c12	NO

====

Measured 12(13)-EpOME accompanies every entry in the list below.
System: arachidonic acid (AA) cascade
METHOD SUMMARY: kidney tissue oxylipin/PG levels in LPS induced sepsis in mice
CONDITION INFO: kidney tissue 24 h after LPS treatment, LPS +, mean
PROPERTY: 12(13)-EpOME (nM)

GIVEN SMILES	VALUE MEASURED
Oc1ccc(/C=C/c2cc(O)cc3c2[C@@H](c2cc(O)cc(O)c2)[C@H](c2ccc(O)cc2)O3)cc1	80
Oc1ccc(/C=C/c2cc(O)cc(O)c2)cc1	59
O=c1cc(-c2ccc(O)cc2)oc2cc(O)cc(O)c12	110

====

System: arachidonic acid (AA) cascade
METHOD SUMMARY: kidney tissue oxylipin/PG levels in LPS induced sepsis in mice
CONDITION INFO: kidney tissue 24 h after LPS treatment, LPS +, mean

COMPOUND	MEASUREMENT UNITS	15-HETE
Cc1ccc(-c2cc(C(F)(F)F)nn2-c2ccc(S(N)(=O)=O)cc2)cc1 [celecoxib, reference compound]	nM	19
O=c1cc(-c2ccc(O)cc2)oc2cc(O)cc(O)c12	nM	22

====

Tested on: arachidonic acid (AA) cascade
METHOD SUMMARY: kidney tissue oxylipin/PG levels in LPS induced sepsis in mice
CONDITION INFO: kidney tissue 24 h after LPS treatment, LPS +, mean
Measured 5(6)-EpETrE accompanies every entry in the list below.

GIVEN SMILES	5(6)-EpETrE [nM]
Oc1ccc(/C=C/c2cc(O)cc3c2[C@@H](c2cc(O)cc(O)c2)[C@H](c2ccc(O)cc2)O3)cc1	70
Oc1ccc(/C=C/c2cc(O)cc(O)c2)cc1	66

====

Test system: arachidonic acid (AA) cascade
METHOD SUMMARY: kidney tissue oxylipin/PG levels in LPS induced sepsis in mice
CONDITION INFO: kidney tissue 24 h after LPS treatment, LPS +, mean

GIVEN SMILES	12(13)-EpODE, nM
O=c1cc(-c2ccc(O)cc2)oc2cc(O)cc(O)c12	6.0
Oc1ccc(/C=C/c2cc(O)cc3c2[C@@H](c2cc(O)cc(O)c2)[C@H](c2ccc(O)cc2)O3)cc1	4.3
Oc1ccc(/C=C/c2cc(O)cc(O)c2)cc1	3.4

====

Measured 5-oxo-ETE accompanies every entry in the list below.
System: arachidonic acid (AA) cascade
METHOD SUMMARY: kidney tissue oxylipin/PG levels in LPS induced sepsis in mice
CONDITION INFO: kidney tissue 24 h after LPS treatment, LPS +, mean

COMPOUND	MEASUREMENT UNITS	5-oxo-ETE
O=c1cc(-c2ccc(O)cc2)oc2cc(O)cc(O)c12 [Apigenin, apigenin]	nM	28
O=c1c(-c2ccc(O)cc2)coc2cc(O)cc(O)c12 [Genistein, genistein]	nM	45
Cc1ccc(-c2cc(C(F)(F)F)nn2-c2ccc(S(N)(=O)=O)cc2)cc1 [celecoxib, reference compound]	nM	31
Oc1ccc(/C=C/c2cc(O)cc(O)c2)cc1 [Resveratrol, resveratrol]	nM	17
Oc1ccc(/C=C/c2cc(O)cc3c2[C@@H](c2cc(O)cc(O)c2)[C@H](c2ccc(O)cc2)O3)cc1 [ε-Viniferin, ε-viniferin]	nM	24

====

System: arachidonic acid (AA) cascade
METHOD SUMMARY: kidney tissue oxylipin/PG levels in LPS induced sepsis in mice
CONDITION INFO: kidney tissue 24 h after LPS treatment, LPS +, mean; < = below LOQ
Measured 13,14-dihydro-15-keto-PGE1 accompanies every entry in the list below.
PROPERTY: 13,14-dihydro-15-keto-PGE1

COMPOUND	VALUE MEASURED
Oc1ccc(/C=C/c2cc(O)cc(O)c2)cc1	0.6 nM
O=c1cc(-c2ccc(O)cc2)oc2cc(O)cc(O)c12	0.41 nM
O=c1c(-c2ccc(O)cc2)coc2cc(O)cc(O)c12	0.5 nM
Cc1ccc(-c2cc(C(F)(F)F)nn2-c2ccc(S(N)(=O)=O)cc2)cc1 [celecoxib, reference compound]	< 0.1 nM
Oc1ccc(/C=C/c2cc(O)cc3c2[C@@H](c2cc(O)cc(O)c2)[C@H](c2ccc(O)cc2)O3)cc1	0.49 nM

====

System: arachidonic acid (AA) cascade
METHOD SUMMARY: kidney tissue oxylipin/PG levels in LPS induced sepsis in mice
CONDITION INFO: kidney tissue 24 h after LPS treatment, LPS +, mean; < = below LOQ
Marks after values point to notes of the source that are not given here.

COMPOUND	PGD1
Cc1ccc(-c2cc(C(F)(F)F)nn2-c2ccc(S(N)(=O)=O)cc2)cc1 [celecoxib, reference compound]	< 0.50 nM
Oc1ccc(/C=C/c2cc(O)cc(O)c2)cc1	0.72 nM
O=c1c(-c2ccc(O)cc2)coc2cc(O)cc(O)c12	< 0.50 nM
Oc1ccc(/C=C/c2cc(O)cc3c2[C@@H](c2cc(O)cc(O)c2)[C@H](c2ccc(O)cc2)O3)cc1	0.84^† nM
O=c1cc(-c2ccc(O)cc2)oc2cc(O)cc(O)c12	< 0.50 nM

====

Test system: arachidonic acid (AA) cascade
METHOD SUMMARY: kidney tissue oxylipin/PG levels in LPS induced sepsis in mice
CONDITION INFO: kidney tissue 24 h after LPS treatment, LPS +, mean
Measured 17(18)-EpETE accompanies every entry in the list below.

GIVEN SMILES	17(18)-EpETE, nM
Oc1ccc(/C=C/c2cc(O)cc(O)c2)cc1	2.5
Oc1ccc(/C=C/c2cc(O)cc3c2[C@@H](c2cc(O)cc(O)c2)[C@H](c2ccc(O)cc2)O3)cc1	2.4

====

Test system: arachidonic acid (AA) cascade
METHOD SUMMARY: kidney tissue oxylipin/PG levels in LPS induced sepsis in mice
CONDITION INFO: kidney tissue 24 h after LPS treatment, LPS +, mean
Measured 9-HOTrE accompanies every entry in the list below.

COMPOUND	MEASUREMENT UNITS	9-HOTrE
Oc1ccc(/C=C/c2cc(O)cc(O)c2)cc1	nM	3.9
O=c1c(-c2ccc(O)cc2)coc2cc(O)cc(O)c12	nM	5.0
O=c1cc(-c2ccc(O)cc2)oc2cc(O)cc(O)c12	nM	3.2
Oc1ccc(/C=C/c2cc(O)cc3c2[C@@H](c2cc(O)cc(O)c2)[C@H](c2ccc(O)cc2)O3)cc1	nM	5.8
Cc1ccc(-c2cc(C(F)(F)F)nn2-c2ccc(S(N)(=O)=O)cc2)cc1 [celecoxib, reference compound]	nM	4.3

====

Test system: arachidonic acid (AA) cascade
METHOD SUMMARY: kidney tissue oxylipin/PG levels in LPS induced sepsis in mice;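 further: male C57BL/6N mice challenged with LPS, kidney taken 24 h later, oxylipins quantified by LC-MS after solid-phase extraction of tissue homogenate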
CONDITION INFO: kidney tissue 24 h after LPS treatment, LPS +, mean
Marks after values point to notes of the source that are not given here.
PROPERTY: 9(10)-EpOME

COMPOUND	VALUE MEASURED
O=c1cc(-c2ccc(O)cc2)oc2cc(O)cc(O)c12	150 nM
Oc1ccc(/C=C/c2cc(O)cc(O)c2)cc1	81 nM
O=c1c(-c2ccc(O)cc2)coc2cc(O)cc(O)c12	170^* nM
Cc1ccc(-c2cc(C(F)(F)F)nn2-c2ccc(S(N)(=O)=O)cc2)cc1 [celecoxib, reference compound]	160^* nM
Oc1ccc(/C=C/c2cc(O)cc3c2[C@@H](c2cc(O)cc(O)c2)[C@H](c2ccc(O)cc2)O3)cc1	110 nM
